Task for the reader: assign each of the following compounds its reported growth inhibition.
# assay_details: NCI Yeast Anticancer Drug Screen. Data for the bub3 strain (AID 167)
# setup_conditions: S. cerevisiae bub3 mutant strain, at 50.0 µM, active compounds read high
This is part of a sample that, as a whole, favours compounds with a hit. Of some 79,000 tested, about 15% had one in any assay.
Answers are plain numbers, in %.

compound | growth inhibition [%]
[N-]=[N+]=NC(=O)c1ccc(S(=O)(=O)c2ccc(F)cc2)cc1 | 3

For the 2 compounds below, give their growth inhibition values.
1. O=C1CSC(c2cccc(Cl)c2)N1N1C(=O)CSC1c1cccc(Cl)c1 (configuration not stated)
2. CC(C)(C)C1=Cc2cc3cc(C(C)(C)C)[nH]c(=O)c3cc2S(=O)(=O)N1

OUT:
1. 2.05
2. 5.4

----------
# assay_details: NCI Yeast Anticancer Drug Screen. Data for the mec2-1 strain (AID 157)
# setup_conditions: S. cerevisiae mec2-1 strain, at 50.0 µM
This is part of a sample that, as a whole, favours compounds with a hit. Of some 79,000 tested, about 15% had one in any assay. Activity calls are given as the source filed them. Rule as the data show it: active = growth inhibition above about 70%; inactive = the rest.
Outcome (select one): TRUE for active, FALSE for inactive

Here are 3 compounds together with their reported answers.
compound | label_value
CC(C)(C)c1cc2c(OP(c3ccccc3)c3ccccc3)c(c1)Cc1cc(C(C)(C)C)cc(c1OP(c1ccccc1)c1ccccc1)Cc1cc(C(C)(C)C)cc(c1OP(c1ccccc1)c1ccccc1)Cc1cc(C(C)(C)C)cc(c1OP(c1ccccc1)c1ccccc1)C2 | FALSE
CC(=O)OCC(OC(C)=O)C(OC(C)=O)C(OC(C)=O)C(OC(C)=O)c1cnn(-c2ccccc2)n1 (stereo unspecified) | FALSE
CC1=C(C(=O)O)CCc2ccccc21 | FALSE

IN: # fetch the recorded call for COc1ccc(C2(C3NCCC4=C3CCCC4)CC2)cc1 (stereo unspecified) here
OUT: FALSE

IN: # fetch the recorded call for O=C1CC[C@@H](S(=O)(=O)c2ccccc2)[C@H](/C=C/c2ccccc2)O1 here
OUT: FALSE

IN: # fetch the recorded call for COc1ccc(OC)c2c(Cl)cc(NCCCN3CCN(CCCNc4cc(Cl)c5c(OC)ccc(OC)c5n4)CC3)nc12 here
OUT: FALSE

----------
# assay_details: NCI Yeast Anticancer Drug Screen. Data for the bub3 strain (AID 167)
# setup_conditions: S. cerevisiae bub3 mutant strain, at 50.0 µM, active compounds read high
Compounds without any hit were thinned out: in the full panel of roughly 79,000, 15% have a hit.
test_readout: growth inhibition (%)
Give bare numbers, in %.

Here's what some known entries look like.
compound | reported_result
CC1(COc2ccccc2)NC(=O)c2ccccc2O1 (stereo not drawn) | 0.85
CCCCCSC | 7.9
C/C=C(\C)CCC(C)(O)CC (stereo not drawn) | -22.4
CCOC(=O)C(Cl)(NC(=O)NC(Cl)(C(=O)OCC)C(F)(F)F)C(F)(F)F (stereo not drawn) | 3.2
COc1cccc(C(=O)O)c1O | -19.9
COc1ccc2c(c1)NC(C(C)C)=NS2(=O)=O | 18.4

For the 5 compounds below, give their growth inhibition values.
1. NC(N)=NCC1CCCCCCN1 (stereo not drawn)
2. CC(=O)CC(=O)NC(C)(C)C
3. Cn1ccc(=O)n(C)c1=O
4. CNc1nc2c(s1)c1c(O)c3c(O)c(C)c4c(c32)C(=O)C(C)(O/C=C/C(OC)C(C)C(OC(C)=O)C(C)C(O)C(C)C(O)C(C)/C=C/C=C(/C)C(=O)N1)O4 (stereo not drawn)
5. C/C(=C\c1ccc(Cl)cc1)C(C)(C)C(=O)O

OUT:
1. -12.6
2. 2.85
3. 5.05
4. 21.2
5. 11

For the 2 compounds below, give their growth inhibition values.
1. CC(=O)NC(NC(C)=O)c1ccccc1
2. Cc1ccnc(=S)[nH]1

OUT:
[-26.4, 23.6]

----------
# assay_details: NCI Yeast Anticancer Drug Screen. Data for the cln2 rad14 strain (AID 165);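 also: 0% = growth equal to vehicle treated cultures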
# setup_conditions: S. cerevisiae cln2 rad14 strain, at 50.0 µM, active compounds read high
This is part of a sample that, as a whole, favours compounds with a hit. Of some 79,000 tested, about 15% had one in any assay.
Task for the reader: assign each of the following molecules its reported growth inhibition.
Numbers only, in %.

Here's what some known entries look like.
molecule | result_unit | growth inhibition
CC(C)=CC(=O)OC1C2C(C)C(=O)OC2C(O)C(C)C2C=CC(=O)C21C (stereo not given) | % | 16.9
CSc1ccc(NC(=O)CCc2ccccc2)cc1 | % | -4
O=C(O)c1cc(Cl)cc([N+](=O)[O-])c1 | % | 19.3
CC(C)(CN1C(=O)C(Cl)=C(Cl)C1=O)CN1C(=O)C(Cl)=C(Cl)C1=O | % | -20.8
CCN(CC)CC(C)(C)C(O)c1ccc(OC)c2ccccc12 (stereo not given) | % | -26.8

For the 5 molecules below, give their growth inhibition values.
1. CN1CCc2cc3c(cc2C(=O)Cc2ccc4c(c2C1)OCO4)OCO3
2. CSC1=C(C#N)C(=O)N(c2ccc(C)cc2)C(=O)C1C#N (stereo not given)
3. COC(=O)C1=C(O)C(C(=O)OC)[C@@]2(O)[C@@H](C(=O)OC)[C@H](C)C[C@@H]1[C@@H]2C(=O)OC (stereo not given in full)
4. Cc1ccc(C)c(NC(=O)Oc2ccc(Br)cc2Br)c1
5. Cc1ccccc1SC(c1ccccc1)(c1ccccc1)c1ccccc1

OUT:
[10.4, 24.4, -1.05, -28.1, -6.55]

For the 8 molecules below, give their growth inhibition values.
1. CCCCOC(=O)NC(=O)c1cc2cc(I)cc(I)c2oc1=O
2. Cn1cc(-c2ccc3c4ccccc4n(C)c3c2)c2ccccc21
3. CC(C)N(C(C)C)C1C=CC(N(C(C)C)C(C)C)CC1 (stereo not given)
4. NC(=O)C(=O)n1ncc(Cl)c(Cl)c1=O
5. CC(COCc1ccccc1)NCc1ccccc1 (stereo not given)
6. Cn1c(N)c(/C=C/C(=O)Oc2ccccc2)c(=O)n(C)c1=O
7. N#C/C(=C/C=C/c1ccccc1)c1ccc([N+](=O)[O-])cc1
8. O=C(O)C1CCCCC1C(=O)Nc1ccc(Cl)c(Cl)c1 (stereo not given)

OUT:
1: -50.2; 2: -2.8; 3: -33.6; 4: 6.55; 5: -9.15; 6: 16.8; 7: -8.2; 8: -4.15

----------
Task for the reader: assign each of the following molecules its reported growth inhibition.
# assay_details: NCI Yeast Anticancer Drug Screen. Data for the mec2-1 strain (AID 157)
# setup_conditions: S. cerevisiae mec2-1 strain, at 50.0 µM, active compounds read high
# Method: Growth inhibition of yeast strains with defined genetic alterations is measured as a screen for potential anti-cancer activity. Selected strains with alterations in DNA damage repair or cell cycle control were exposed to compounds and growth inhibition was measured relative to vehicle treated controls. The strain used in this assay is mec2-1
About 79,000 compounds went through this panel and 15% of them were active in at least one assay; those are over-represented in the sample as a whole.
Answers are plain numbers, in %.

molecule | growth inhibition, %
CN(CCO)c1nc2c(c(=O)[nH]1)CCC2 | -21.8
COC(=O)C1CC(=C(C)C)CCC1=O (stereo not drawn) | 2.15
CC(C(c1ccccc1)C(Br)C(=O)c1ccccc1)[N+](=O)[O-] (stereo not drawn) | 93.2
CC(=O)CC(=O)NC(C)(C)C | -33
Nc1ccc(OCCCc2c(N)nc(N)nc2N)c(Cl)c1 | 99.1

For the 6 molecules below, give their growth inhibition values.
1. CC(C)([NH-])C[NH-].[Cl][Pt+2][Cl]
2. C=CCOC(=O)COC(=O)C(C)(C)OC(C)=O
3. CC(COC(=O)c1ccc(N)cc1)NC1CCCCC1 (stereo not drawn)
4. O=C(/C=C/c1ccc2c(c1)OCO2)CC(=O)/C=C/c1ccc2c(c1)OCO2
5. CN=C1c2ccccc2C(=O)c2c1c(O)n(C)c2O
6. Nc1cccc(C(CC(=O)O)CC(=O)O)c1

OUT:
1: -18.8; 2: 10.3; 3: 1.1; 4: 19.6; 5: -8.45; 6: 10.9

For the 2 molecules below, give their growth inhibition values.
1. COc1cc(-c2nnc3n2NC=C(C(=O)O)S3)cc(OC)c1OC
2. CCCCCC(O)c1ccc2c(c1)OCO2 (stereo not drawn)

OUT:
1. 2.45
2. 12.9

----------
# assay_details: NCI Yeast Anticancer Drug Screen. Data for the sgs1 mgt1 strain (AID 161);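 also: 0% = growth of cultures given vehicle only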
# setup_conditions: S. cerevisiae sgs1 mgt1 strain, at 50.0 µM
This is part of a sample that, as a whole, favours compounds with a hit. Of some 79,000 tested, about 15% had one in any assay. The source made the active and inactive calls. No stated cut-off is given here; in the data, active means growth inhibition above about 70%; inactive means the rest.
Outcome (select one): true (1) (active), false (0) (inactive)

Here are 3 compounds together with their reported answers.
compound | label_value
BrCCCCOc1ccccc1 | false (0)
CC(C)C(N)C(=O)NO (configuration not stated) | false (0)
COc1cccc(NC(=O)C(=O)C(C(C)=O)c2nc3ccc(Cl)cc3[nH]c2=O)c1 (configuration not stated) | false (0)

IN: # fetch the recorded call for O=C(O)CCc1ccccc1C(=O)O here
OUT: false (0)

IN: # fetch the recorded call for COc1ccc(C2c3cc4c(cc3OC(Nc3ccccc3)C2C)OCO4)cc1 (configuration not stated) here
OUT: false (0)

IN: # fetch the recorded call for O/N=C(/Cc1ccccc1)CC(O)(C(F)(F)F)C(F)(F)F here
OUT: true (1)

IN: # fetch the recorded call for CC(C)C(=O)c1ccccc1Cl here
OUT: false (0)

IN: # fetch the recorded call for COc1c2ccoc2nc2c(O)c3c(c(CC=C(C)C)c12)OCO3 here
OUT: false (0)

IN: # fetch the recorded call for Nc1c2c(nn1-c1ccccc1)C(=O)N(CCc1ccccc1)C2 here
OUT: false (0)

IN: # fetch the recorded call for COC(=O)C(Cc1nc2ccc(Cl)cc2[nH]c1=O)C(=O)C(=O)Nc1cc(C)ccc1C (configuration not stated) here
OUT: false (0)

IN: # fetch the recorded call for O=S(=O)(/N=C(Cl)/C(Cl)=N/S(=O)(=O)c1ccccc1)c1ccccc1 here
OUT: false (0)

IN: # fetch the recorded call for COCCCN1C(=O)C2c3[nH]c4ccccc4c3C3CCC(C(C)(C)C)CC3C2C1=O (configuration not stated) here
OUT: false (0)
